# Kd listing for each entry below
# measured_on: hCLEC12A-His fusion protein (human) (UniProt Q5QGZ9)
# Sequence (Q5QGZ9 65-265 limits assumed): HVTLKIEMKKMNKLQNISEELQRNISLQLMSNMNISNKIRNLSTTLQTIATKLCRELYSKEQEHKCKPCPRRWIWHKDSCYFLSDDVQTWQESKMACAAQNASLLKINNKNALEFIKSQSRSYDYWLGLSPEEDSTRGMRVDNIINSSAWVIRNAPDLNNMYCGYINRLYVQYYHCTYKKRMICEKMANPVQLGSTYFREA
# assay_text: SPR screening, semi-purified protein
Answer with a number only, understood to be in nM.

Consider the reported Kd for these binders:
binder	result_unit	Kd
AB0191 (bispecific antibody, part only; not given: Fc, unrelated binder arm, linkers, not shown: another chain or arm of the molecule; a dimerising Fc or GST; small tags and cut ends) scFv: EVQLVESGGGVVQPGGSLRLSCAASGFTFNSFGMHWVRQAPGKCLEWVAFISSGSTSIYYANTVKGRFTISRDNSKNTLYLQMNSLRAEDTAVYYCARDGYPTGGAMDYWGQGTSVTVSSGGGGSGGGGSGGGGSGGGGSDIQMTQSPSSLSASVGDRVTITCKASQDIYNYLSWFQQKPGKAPKPLIYRANILVSGVPSRFSGSGSGQDYTFTISSLQPEDIATYYCLQFDAFPFTFGCGTKLEIK	nM	1.73
AB0188 (bispecific antibody, part only; not given: Fc, unrelated binder arm, linkers, not shown: another chain or arm of the molecule; a dimerising Fc or GST; small tags and cut ends) scFv: DIKMTQSPSSLSASVGDRVTITCKASQDIYNYLSWFQQKPGKAPKPLIYRANILVSGVPSRFSGSGSGQDYTLTISSLQPEDIATYYCLQFDAFPFTFGCGTKLEIKGGGGSGGGGSGGGGSGGGGSEVQLVESGGGVVQPGGSLRLSCAASGFTFNSFGMHWVRQAPGKCLEWVAFISSGSTSIYYANTVKGRFTISRDNSKNTLYLQMNSLRAEDTAVYYCARDGYPTGGAMDYWGQGTSVTVSS	nM	1.58
AB0185 (bispecific antibody, part only; not given: Fc, unrelated binder arm, linkers, not shown: another chain or arm of the molecule; a dimerising Fc or GST; small tags and cut ends) scFv: DIQMTQSPSSLSASVGDRVTITCKASQDIYNYLSWFQQKPGKAPKPLIYRANILVSGVPSRFSGSGSGQDYTFTISSLQPEDIATYYCLQFDAFPFTFGCGTKLEIKGGGGSGGGGSGGGGSGGGGSEVQLVESGGGVVQPGGSLRLSCAASGFTFNSFGMHWVRQAPGKCLEWVAFISSGSTSIYYANTVKGRFTISRDNSKNTLYLQMNSLRAEDTAVYYCARDGYPTGGAMDYWGQGTSVTVSS	nM	1.4
AB0192 (bispecific antibody, part only; not given: Fc, unrelated binder arm, linkers, not shown: another chain or arm of the molecule; a dimerising Fc or GST; small tags and cut ends) scFv: EVQLVESGGGVVQPGGSLRLSCAASGFTFNAFGMHWVRQAPGKCLEWVAFISSGSTSIYYANTVKGRFTISRDNSKNTLYLQMNSLRAEDTAVYYCARDGYPTGGAMDYWGQGTSVTVSSGGGGSGGGGSGGGGSGGGGSDIQMTQSPSSLSASVGDRVTITCKASQDIYNYLSWFQQKPGKAPKPLIYRANILVSGVPSRFSGSGSGQDYTFTISSLQPEDIATYYCLQFDAFPFTFGCGTKLEIK	nM	1.26
F3′-1297 (bispecific antibody, part only; not given: Fc and unrelated binding arm, not shown: another chain or arm of the molecule; a dimerising Fc or GST; small tags and cut ends) scFv: QLQLQESGPGLVKPSETLSLTCTVSGFSLTNYGLHWIRQPPGKCLEWIGVIWSGGKTDYNPSLKSRVTISKDTSKNQFSLKLSSVQANDTAVYYCAKYDYDDSLDYWGQGTLVTVSSGGGGSGGGGSGGGGSGGGGSDIQMTQSPSSLSASVGDRVTITCHASQNINFWLSWYQQKPGKAPKLLIYEASNLHTGVPSRFSGSGSGTRFTLTISSLQPEDIATYYCQQSHSYPLTFGCGTKLEIK	nM	2.79
AB0186 (bispecific antibody, part only; not given: Fc, unrelated binder arm, linkers, not shown: another chain or arm of the molecule; a dimerising Fc or GST; small tags and cut ends) scFv: DIQMTQSPSSLSASVGDRVTITCKASQDIYNYLSWFQQKPGKAPKPLIYRANILVSGVPSRFSGSGSGQDYTFTISSLQPEDIATYYCLQFDAFPFTFGCGTKLEIKGGGGSGGGGSGGGGSGGGGSEVQLVESGGGVVQPGGSLRLSCAASGFTFNAFGMHWVRQAPGKCLEWVAFISSGSTSIYYANTVKGRFTISRDNSKNTLYLQMNSLRAEDTAVYYCARDGYPTGGAMDYWGQGTSVTVSS	nM	1.04
AB0189 (bispecific antibody, part only; not given: Fc, unrelated binder arm, linkers, not shown: another chain or arm of the molecule; a dimerising Fc or GST; small tags and cut ends) scFv: DIKMTQSPSSLSASVGDRVTITCKASQDIYNYLSWFQQKPGKAPKPLIYRANILVSGVPSRFSGSGSGQDYTLTISSLQPEDIATYYCLQFDAFPFTFGCGTKLEIKGGGGSGGGGSGGGGSGGGGSEVQLVESGGGVVQPGGSLRLSCAASGFTFNAFGMHWVRQAPGKCLEWVAFISSGSTSIYYANTVKGRFTISRDNSKNTLYLQMNSLRAEDTAVYYCARDGYPTGGAMDYWGQGTSVTVSS	nM	1.21
F3′-1306 (bispecific antibody, part only; not given: Fc and unrelated binding arm, not shown: another chain or arm of the molecule; a dimerising Fc or GST; small tags and cut ends) scFv: DIQMTQSPSSLSASVGDRVTITCHASQNINFWLSWYQQKPGKAPKLLIYEASNLHTGVPSRFSGSGSGTRFTLTISSLQPEDIATYYCQQSHSYPLTFGCGTKLEIKGGGGSGGGGSGGGGSGGGGSQLQLQESGPGLVKPSETLSLTCTVSGFSLTNYGLHWIRQPPGKCLEWIGVIWSGGKTDYNPSLKSRVTISKDTSKNQFSLKLSSVQANDTAVYYCAKYDYDDSLDYWGQGTLVTVSS	nM	5.16

# input For the binder F3′-1292 (bispecific antibody, part only; not given: Fc and unrelated binding arm, not shown: another chain or arm of the molecule; a dimerising Fc or GST) scFv: QLQLQESGPGLVKPSETLSLTCTVSGFSLTNYGLHWIRQPPGKCLEWIGVIWSGGKTDYNPSLKSRVTISKDTSKNQFSLKLSSVQANDTAVYYCAKYDYDDSLDYWGQGTLVTVSSGGGGSGGGGSGGGGSGGGGSDIQMTQSPSSLSASVGDRVTITCHASQNINFWLSWYQQKPGKIPKLLIYEASNLHTGVPSRFSGSGSGTRFTLTISSLQPEDIATYYCQQSHSYPLTFGCGTKLEIK , what Kd is on record?
# output 3.22

# input What would you report for AB0195 (bispecific antibody, part only; not given: Fc and unrelated binding arm, not shown: another chain or arm of the molecule; a dimerising Fc or GST) scFv: EVQLVESGGGVVQPGGSLRLSCAASGFTFNAFGMHWVRQAPGKCLEWVAFISSGSTSIYYANTVKGRFTISRDNSKNTLYLQMNSLRAEDTAVYYCARDGYPTGGAMDYWGQGTSVTVSSGGGGSGGGGSGGGGSGGGGSDIKMTQSPSSLSASVGDRVTITCKASQDIYNYLSWFQQKPGKAPKPLIYRANILVSGVPSRFSGSGSGQDYTLTISSLQPEDIATYYCLQFDAFPFTFGCGTKLEIK ?
# output 1.68
